- Tested on: NCI-H522
- TEST DESCRIPTION: NCI tumour cell line growth inhibition, 48 h
The source made the active and inactive calls. No stated cut-off is given here; in the data, active = GI50 up to about 1.1 µM and inactive = higher.
Assign a class; possible classes are 1.0 = active, 0.0 = inactive

Consider the following illustrative entries.
| COMPOUND | MEASURED ON | ANSWER LABEL |
| --- | --- | --- |
| O=C1CCCCC/C1=C\c1ccc(F)cc1 | NCI-H522 | 0.0 |
| C=C(C)[C@@H]1CC[C@]2(C(=O)OC3OC(COC4OC(CO)C(OC5OC(C)C(O)C(O)C5O)C(O)C4O)C(O)C(O)C3O)CC[C@]3(C)[C@H](CC[C@@H]4[C@@]5(C)CC[C@H](O)[C@@](C)(CO)[C@@H]5CC[C@]43C)[C@@H]12 (some centres not stated) | NCI-H522 | 0.0 |
| CO/C(=N\N=C\c1ccc(C(F)(F)F)cc1)c1ccncc1 | NCI-H522 | 0.0 |

Now take the following compound into account.
q: What call does the record list for c1ccc2c(c1)N=C(NC1CCCCC1)CCN2 ?
a: 0.0

###

- Test system: RPMI-8226
- TEST DESCRIPTION: NCI tumour cell line growth inhibition, 48 h
Activity calls are given as the source filed them. Rule as the data show it: active = GI50 up to about 1.1 µM and inactive = higher.
Assign a class; possible classes are active, inactive

Consider the following illustrative entries.
| COMPOUND | MEASURED ON | ANSWER LABEL |
| --- | --- | --- |
| C[C@]12CCC(=O)C[C@H]1CCC(O)[C@@H]2Br (some centres undefined) | RPMI-8226 | inactive |
| OC1(c2ccc(Cl)cc2)c2ccccc2C2=NCc3ccccc3CN21 (centres undefined) | RPMI-8226 | inactive |
| COc1ccc2c(c1)-c1c(c3cc(OC)ccc3n1CCN1CCOCC1)CC2 | RPMI-8226 | inactive |
| c1ccc(-c2c[nH]c(SC(c3ccccc3)c3ccccc3)n2)cc1 | RPMI-8226 | inactive |
| COc1cc2nc(NCCCCCNC(=O)c3ccco3)nc(N)c2cc1OC | RPMI-8226 | inactive |

q: What call does the record list for COCCCNC(=O)C1C(=O)N(CCCOC)C(=O)/C1=N\N (centres undefined) ?
a: inactive

q: What call does the record list for N#Cc1ccccc1/C=N/O ?
a: inactive

###

- Tested on: CCRF-CEM
- TEST DESCRIPTION: NCI tumour cell line growth inhibition, 48 h
Active and inactive are the calls of the source. Cut-off read from the data, not from the text of the source: active = GI50 up to about 1.1 µM and inactive = higher.
Assign a class; possible classes are 1 = active, -1 = inactive

Consider the following illustrative entries.
| COMPOUND | MEASURED ON | ANSWER LABEL |
| --- | --- | --- |
| COc1c2ccoc2nc2c(OC)c(OCC(O)C(C)(C)O)ccc12 (centres undefined) | CCRF-CEM | -1 |
| OCC(Cn1cncn1)(c1ccc(F)cc1F)n1cncn1 (centres undefined) | CCRF-CEM | -1 |
| O=C1OC(c2ccccc2)N(C(=O)c2ccccc2)C1Cc1ccc(OCc2ccccc2)cc1 (centres undefined) | CCRF-CEM | -1 |
| Cc1ccc(NC(=O)c2cc3cc(/N=N/c4ccccc4C(=O)O)ccc3oc2=O)cc1 | CCRF-CEM | -1 |
| Cc1c(C#N)c2nnn(-c3cccc(Cl)c3)c(=O)n2c1-c1ccccc1 | CCRF-CEM | -1 |
| Cn1ncnc1CCc1ccccc1 | CCRF-CEM | -1 |

q: What call does the record list for CCN1C[C@]2(C)CC[C@H](O)C34C1C(C[C@@H]32)[C@@]1(O)CC[C@H]2C[C@@H]4[C@@H]1[C@H]2O ?
a: -1

q: What call does the record list for NC(Cc1c2ccccc2cc2ccccc12)C(=O)O (centres undefined) ?
a: -1

q: What call does the record list for CC(C)=NN/C(=N\c1ccc(Cl)cc1)NS(=O)(=O)c1cc(Cl)c(Oc2ccc([N+](=O)[O-])cc2Cl)c(Cl)c1 ?
a: -1

q: What call does the record list for CC(=O)OC[C@H]1[C@@H]2C(CC[C@]13CO3)OC(=O)CC(C)[C@]2(C)CCc1ccoc1 (some centres undefined) ?
a: -1

q: What call does the record list for OCC1CCCCCCCCCCC12SCCCS2 (centres undefined) ?
a: -1

q: What call does the record list for Cc1ccc(S(=O)(=O)N/N=C2/CCCOC2)cc1 ?
a: -1
